- method.summary: inhibitors of the yeast RAM network, primary screen, dse1pr::URA3 reporter, 5-FOA selection (AID 868);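 note: 0% = DMSO-only wells with no growth and 100% = 10 µM 1-NA-PP1 full growth; inhibition rescues growth on 5-FOA so higher OD means more RAM inhibition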
- condition.description: S. cerevisiae dse1pr::URA3 reporter, 5-FOA growth OD615, 2 d; at 50 µM; stronger effect = higher value
The whole screen tested about 190,000 compounds, of which about 3,500 (1.8%) were called active. Only a selection was taken, and actives are over-represented in it overall.
Let's look at some compounds and their measured inhibition.

{"compound": "CC(Cc1cccs1)NCc1ccc(Cl)cc1 (stereo not drawn)", "inhibition / %": 1.87}
{"compound": "O=C(NC(c1ccc(Cl)cc1)P(=O)(Oc1ccccc1)Oc1ccccc1)OCc1ccccc1 (stereo not drawn)", "inhibition / %": 11.3}
{"compound": "OCC#CC[N+]1(CC#Cc2ccccc2)CCCC1", "inhibition / %": 2.58}
{"compound": "O=C(COC(=O)c1ccccc1)Nc1ccc(Cl)cc1C(=O)c1ccccc1", "inhibition / %": 8.43}
{"compound": "CCOC(=O)C1SC2(C(F)(F)C(F)F)CC1(O)c1c(c(OC)c3occc3c1OC)O2 (stereo not drawn)", "inhibition / %": 9.36}
{"compound": "COC(=O)N1C(c2ccccc2)C1c1ccccc1 (stereo not drawn)", "inhibition / %": 0.12}
{"compound": "CN1CCN(C(=S)SCC(=O)Nc2ccc(Cl)cc2C(=O)c2ccccc2)CC1", "inhibition / %": -0.25}
{"compound": "CC1=CC(=Cc2sc3ccccc3[n+]2C)C=C(C)O1", "inhibition / %": 0.13}
{"compound": "C=CCN(CC=C)C(=O)Nc1ccc(OCC)cc1", "inhibition / %": 1.22}
{"compound": "CC(=O)Nc1ccccc1C(=O)OCC(=O)c1cccc2ccccc12", "inhibition / %": 9.49}
{"compound": "Cc1ccc(-c2nn(CCC#N)cc2C(=O)O)cc1C", "inhibition / %": -0.13}
{"compound": "CN(C)P(=S)(Nc1ccccc1)C(Cl)(Cl)Cl (stereo not drawn)", "inhibition / %": 1.76}
{"compound": "O=C(Nc1cccc(OC(=O)N2CCCCC2)c1)N1CCOCC1", "inhibition / %": -1.26}
